- TESTED TARGET: BCRP (Homo sapiens, UniProt Q9UNQ0)
- Construct: expressed in transfected cells; host or cells: MDCK (canine kidney) cells
- Sequence (Q9UNQ0 1-655): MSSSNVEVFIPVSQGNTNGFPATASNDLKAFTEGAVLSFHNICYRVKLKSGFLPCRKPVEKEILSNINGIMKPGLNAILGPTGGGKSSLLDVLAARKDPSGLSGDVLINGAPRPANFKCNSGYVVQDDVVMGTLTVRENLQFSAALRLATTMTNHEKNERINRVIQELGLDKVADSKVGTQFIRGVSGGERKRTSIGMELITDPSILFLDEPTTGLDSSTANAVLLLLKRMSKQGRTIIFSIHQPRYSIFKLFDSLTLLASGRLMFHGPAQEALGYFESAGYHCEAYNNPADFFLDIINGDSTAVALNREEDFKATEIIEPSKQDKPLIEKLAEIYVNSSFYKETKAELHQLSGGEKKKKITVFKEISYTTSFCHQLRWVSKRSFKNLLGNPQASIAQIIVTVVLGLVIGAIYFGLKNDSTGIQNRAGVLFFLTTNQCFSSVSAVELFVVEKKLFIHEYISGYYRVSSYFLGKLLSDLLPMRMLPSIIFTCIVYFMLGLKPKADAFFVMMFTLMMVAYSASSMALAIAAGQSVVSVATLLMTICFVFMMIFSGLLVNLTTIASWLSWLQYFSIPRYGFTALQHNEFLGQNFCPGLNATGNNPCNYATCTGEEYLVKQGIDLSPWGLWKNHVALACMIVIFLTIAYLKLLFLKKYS
- PROCEDURE DETAILS: BCRP-MDCK effective efflux ratio
- Format: in vitro ADME
- TEST CONDITIONS: BCRP-MDCK relative to wild-type MDCK, 1 μM, 60 minutes, pH 7.4
METRIC NAME: MDCK BCRP EER

Guide cases for MDCK BCRP EER, answers given:
Cc1ccc(C(=O)Nc2cc(CN3CCOCC3)cc(C(F)(F)F)c2)cc1-n1cc(-c2cccnc2)cn1 [Comparative example 2, reference compound]: 1.8
COc1cncc(-c2cnn(-c3cc(C(=O)Nc4cc(C(F)(F)F)ccn4)ccc3C)c2)c1: 1.1
Cc1ccc(C(=O)Nc2cc(C(F)(F)F)cnn2)cc1-n1cc(-c2cccnc2)nn1 [compound 3, reference compound]: 8.5
Cc1cncc(-c2cnn(-c3cc(C(=O)Nc4cc(C(F)(F)F)ccn4)ccc3C)c2)c1: 0.8
Cc1ccc(C(=O)Nc2ccc(CN3CCN(C)CC3)c(C(F)(F)F)c2)cc1-n1cc(-c2cnc(N)nc2)nn1 [compound 5, reference compound]: 2.1

Batch request: MDCK BCRP EER for each of the following molecules.
1. Cc1ccc(C(=O)Nc2cc(C(F)(F)F)c(CN3CCN(C)CC3)cn2)cc1-n1cc(-c2cccnc2)cn1 [compound 6, reference compound]
2. Cc1ccc(C(=O)Nc2cc(C(F)(F)F)ccn2)cc1-n1cc(-c2cccnc2)cn1

A)
1. 5.0
2. 1.5
